Where these numbers come from: PubChem BioAssay AID652136

# method: SF-1 AF-2 mutant transactivation artefacts – cell-based, luminescence, counter-screen for DAX1 inhibitor project (AID 652136);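 further: 0% = DAX-1 transfected cells with DMSO and 100% = cells without DAX-1 with DMSO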
# details: HEK293 StAR-luciferase, SF-1 AF2 mutant, at 6.8 µM, hits give high values
In all, about 2,400 compounds went through this assay and about 1,900 (79%) were called active. So high a share suggests a set chosen from earlier hits. Only a sample is shown.
readout: inhibition (%)
Output spec: scalar in %, unitless text.

Record excerpt, results attached:
smiles.notation	readout	units.text	reported
O=C(CCc1ccccc1)Nc1ncc([N+](=O)[O-])s1	inhibition	%	1.92
O=C(c1cc(-c2ccccc2O)on1)N1CCCC1	inhibition	%	7.17
O=C(c1cc(-c2cccs2)on1)N1CCCCC1	inhibition	%	4.85
Cc1c(C(=O)Nc2ccccn2)oc2ccc(Br)cc12	inhibition	%	8.11
COC(=O)Nc1nc2ccc(C(=O)C3CC3)cc2[nH]1	inhibition	%	-5.19

We now examine a further compound.
Exercise: Requested read-out: inhibition. Entry: Cc1ccnc(NC(=O)CNC(=O)c2ccccc2)c1
Key: 2.35

----------
# method: SF-1 AF-2 mutant transactivation artefacts – cell-based, luminescence, counter-screen for DAX1 inhibitor project (AID 652136);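 further: 0% = DAX-1 transfected cells with DMSO and 100% = cells without DAX-1 with DMSO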
# details: HEK293 StAR-luciferase, SF-1 AF2 mutant, at 6.8 µM, hits give high values
The whole screen tested about 2,400 compounds, of which about 1,900 (79%) were called active. So high a share suggests a set chosen from earlier hits. Not all results are given here.
readout: inhibition (%)
Output spec: scalar in %, unitless text.

Record excerpt, results attached:
compound	inhibition / %
O=C(Nc1ccc2c(c1)CCC2)c1ccc(Br)s1	5.35
CCCc1cc(C(=O)Nc2ccc(C(=O)OC)cc2)cs1	3.67
CCCOc1ccc(C(=O)NCCc2ccccc2)cc1	4.75

Exercise: Requested read-out: inhibition. Entry: COc1ccc(C(=O)NCC[N+](C)(C)C)cc1
Key: 1.97

Exercise: Input COc1ccc(-c2cn3ccsc3n2)cc1
Key: 6.15

Exercise: Input Cc1ccc(C(=O)NNC(=O)c2ccc3c(c2)OCCO3)cc1
Key: 2.35

Exercise: Input O=C(CSc1cccc[n+]1[O-])c1ccc(-c2ccccc2)cc1
Key: 1.01

Exercise: Input CN(C(=O)c1cc2c(=O)n3ccccc3nc2s1)C1CCCCC1
Key: 3.77

Exercise: Input COc1ccc2nc(SCc3ccccc3)nc(C)c2c1
Key: 8.35

Exercise: Input O=C(Nc1ncccc1O)c1ccc(S(=O)(=O)N2CCCC2)cc1
Key: 5.53

Exercise: Input Cc1csc(SCC(=O)Nc2sccc2C#N)n1
Key: 10.8

Exercise: Input CCN(CC(=O)Nc1c(F)cccc1F)C(=O)c1cnc(C)cn1
Key: 0.25

Exercise: Input COc1ccc(CCNC(=O)COC(=O)Cc2ccccc2F)cc1
Key: -0.5

Exercise: Input O=C(O)c1ccc(N/N=C/c2cn(-c3ccccc3)nc2-c2cccs2)cc1
Key: 6.77

Exercise: Input CCOc1cccc(/C=C/c2ccc3ccccc3n2)c1OC(C)=O
Key: 2.8

Exercise: Input O=C1C(C=NCC2CCCO2)=C(O)c2ccccc21 (stereo not given)
Key: 4.34

Exercise: Input COc1ccc(-c2csc(Nc3ccccn3)n2)cc1
Key: 5.68

Exercise: Input Brc1ccc2nc(N3CCCC3)sc2c1
Key: 4.08
